protocol: NCI Yeast Anticancer Drug Screen. Data for the rad50 strain (AID 155);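 also: 0% = growth of vehicle-only cultures of the same strain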
run-conditions: S. cerevisiae rad50 strain growth inhibition; at 5.0 µM (retest, dose inferred, filed as 0.5)
Method: Growth inhibition of yeast strains with defined genetic alterations is measured as a screen for potential anti-cancer activity. Selected strains with alterations in DNA damage repair or cell cycle control were exposed to compounds and growth inhibition was measured relative to vehicle treated controls. The strain used in this assay is rad50
Compounds without any hit were thinned out: in the full panel of roughly 79,000, 15% have a hit. Calls of active or inactive are those of the source. Rule as the data show it: active = growth inhibition above about 70%; inactive = the rest.
Respond using exactly one of the listed classes: active, inactive

[ask] Short answer needed: outcome of this test for O=[N+]([O-])c1ccc(/C=N\OCc2cscn2)cc1 ?
[reply] inactive

[ask] Short answer needed: outcome of this test for O=C1c2ccccc2C(=O)c2sc(Nc3ccc(Cl)c(Cl)c3)nc21 ?
[reply] active

[ask] Short answer needed: outcome of this test for Cc1nnc(NS(=O)(=O)c2ccc(N=Nc3cc(N=Nc4ccc(S(=O)(=O)Nc5nnc(C)s5)cc4)c4c(NC(=O)C(Cl)Cl)cccc4c3OC(=O)C(Cl)Cl)cc2)s1 (tested in a mixture with another compound) ?
[reply] active

[ask] Short answer needed: outcome of this test for C/C(=N/O)c1ccc2c(c1)C(=NO)c1cc(/C(C)=N/O)ccc1-2 ?
[reply] inactive

* * *

Give growth inhibition for every item shown.
protocol: NCI Yeast Anticancer Drug Screen. Data for the sgs1 mgt1 strain (AID 161);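 also: 0% = growth of cultures given vehicle only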
run-conditions: S. cerevisiae sgs1 mgt1 strain, at 5.0 µM (retest, dose inferred, filed as 0.5), stronger effect = higher value
The panel holds about 79,000 compounds, 15% with a hit somewhere; the sample as a whole holds those more often.
Numbers only here, please. The scale is %.

[ask] growth inhibition for COC(=O)C1C(c2ccccc2)=N[C@@H](c2ccccc2)[C@H]1C(=O)OC (some centres not stated) ?
[reply] 9

[ask] growth inhibition for CS(=O)(=O)c1nnnn1-c1ccccc1 ?
[reply] -18

[ask] growth inhibition for COC(=O)CCC(=O)c1ccc2c(c1)CC1(Cc3ccccc3C1)C2 ?
[reply] 24

[ask] growth inhibition for Oc1cc(Br)cc2cc(Br)cnc12 ?
[reply] 95

[ask] growth inhibition for CCOC(=O)C(=Cc1ccc(C(=O)OC)cc1)C(=O)OCC ?
[reply] -2

[ask] growth inhibition for C=C1CC2(CC(C(C)C)CCC2C)OC1=O (configuration not stated) ?
[reply] 23

[ask] growth inhibition for O=C(Nc1ccccc1C(=O)NC(=O)c1ccccc1NC(=O)c1ccccc1)c1ccccc1 ?
[reply] -2

[ask] growth inhibition for Oc1ccc(-c2ccc3ccccc3c2)cc1 ?
[reply] -3

[ask] growth inhibition for c1ccc(C2CC(c3ccc4ccccc4c3)=Nc3ccccc3S2)cc1 (configuration not stated) ?
[reply] 8

[ask] growth inhibition for C[C@]12CC[C@H]3[C@@H](CCC4=CC(=O)CC[C@@]43C)[C@@H]1CC[C@@H]2C(=O)C=O ?
[reply] 16

[ask] growth inhibition for CN(/N=C/c1ccc(C(=O)O)cc1)C1=NCCCCN1 ?
[reply] -2

[ask] growth inhibition for CCOc1ccc2nc([NH-])sc2c1.CCOc1ccc2nc([NH-])sc2c1.[Cl][Pt+2][Cl] ?
[reply] -1

[ask] growth inhibition for C=CNC(=O)Oc1ccccc1 ?
[reply] -47

[ask] growth inhibition for Cc1nc2ccc(NCCN(C)C)c3c(=O)c4cc(O)ccc4n1c23 ?
[reply] -4

[ask] growth inhibition for CN(/N=C\c1ccc2ccccc2c1)C1=NCCCN1 ?
[reply] 98

[ask] growth inhibition for CCOC(=O)/C(=C\N1C(=O)/C(=C\C(C)=C\c2ccccc2)SC1=S)C(=O)c1ccccc1 ?
[reply] -3

[ask] growth inhibition for COc1ccc(-c2c(-c3ccccc3)c(C)nc3[nH]c(=S)[nH]c(=S)c23)cc1OC ?
[reply] 7

[ask] growth inhibition for Cc1[nH]c2ccccc2c1C1=CC2(C)Nc3ccccc3C2C(C)(C)C1 (configuration not stated) ?
[reply] -4

[ask] growth inhibition for C/C(=N/NC(=S)Nc1ccc([N+](=O)[O-])cc1)c1cccc(/C(C)=N\NC(=S)Nc2ccc([N+](=O)[O-])cc2)n1 ?
[reply] 15

[ask] growth inhibition for CC1=C(C(=O)Nc2ccccc2)C(c2cccc3ccccc23)C(C(=O)Nc2ccccc2)=C(C)N1 ?
[reply] 0

[ask] growth inhibition for O=c1ncccn1[C@@H]1O[C@H](CO)[C@H](O)C1O (some centres not stated) ?
[reply] 15

[ask] growth inhibition for O=C(c1ccccc1)C(c1ccccc1)C1(O)C(=O)Nc2c(Cl)cc(Cl)cc21 (configuration not stated) ?
[reply] -18

* * *

protocol: NCI Yeast Anticancer Drug Screen. Data for the mec2-1 strain (AID 157)
run-conditions: S. cerevisiae mec2-1 strain, at 50.0 µM (retest, dose inferred, filed as 5.0), stronger effect = higher value
Experimental: Growth inhibition of yeast strains with defined genetic alterations is measured as a screen for potential anti-cancer activity. Selected strains with alterations in DNA damage repair or cell cycle control were exposed to compounds and growth inhibition was measured relative to vehicle treated controls. The strain used in this assay is mec2-1
Compounds without any hit were thinned out: in the full panel of roughly 79,000, 15% have a hit. Active and inactive are the calls of the source. No stated cut-off is given here; in the data, active means growth inhibition above about 70%; inactive means the rest.
test-readout: growth inhibition

[ask] growth inhibition for NCC(=O)N/N=C/c1ccc([N+](=O)[O-])o1 ?
[reply] 17% (inactive)

[ask] growth inhibition for Cc1cc(O)c(O)cc1C/C=C/c1ccccc1 ?
[reply] 97% (active)

[ask] growth inhibition for COc1ccc(-c2c3c(cc4cc5c(cc24)OCO5)C(=O)OC3)cc1OC ?
[reply] 96% (active)

[ask] growth inhibition for CC1(c2ccccc2)OC1C(=O)N(c1ccccc1)c1ccccc1 (stereo unspecified) ?
[reply] 99% (active)

[ask] growth inhibition for COc1ccc(OC)c(CC(Cl)(C#N)C#N)c1 ?
[reply] 100% (active)

[ask] growth inhibition for Oc1cc(Cc2ccccc2)c(Cc2ccccc2)cc1O ?
[reply] 98% (active)

[ask] growth inhibition for Nc1cccc2c1[nH]c(=O)c1ccccc12 ?
[reply] 31% (inactive)

[ask] growth inhibition for COC12C=CC(CC1)c1c2c(O)c2ccncc2c1O (stereo unspecified) ?
[reply] 81% (active)

[ask] growth inhibition for C=C1CC2(CC(C(C)C)CCC2C)OC1=O (stereo unspecified) ?
[reply] 52% (inactive)

[ask] growth inhibition for O=C1C(c2c[nH]c3ccccc23)=Nc2ccc(Br)cc21 ?
[reply] 35% (inactive)

[ask] growth inhibition for COc1ccc(C2c3cc4c(cc3OC(O)C2C)OCO4)cc1 (stereo unspecified) ?
[reply] 49% (inactive)

[ask] growth inhibition for O=Cc1cc([N+](=O)[O-])ccc1O ?
[reply] 99% (active)

[ask] growth inhibition for O=C1C(Cl)=C(Cl)C(=O)c2cc(Cl)c(Cl)cc21 ?
[reply] 99% (active)

[ask] growth inhibition for O=C1CN=C(c2ccccc2)N(c2ccccc2)N1 ?
[reply] 97% (active)

[ask] growth inhibition for CCCCCCc1c(Cl)nc(Cl)nc1Cl ?
[reply] 43% (inactive)

[ask] growth inhibition for O=S(=O)(Nc1ccccc1C(F)(F)F)c1ccc(F)cc1 ?
[reply] 59% (inactive)

[ask] growth inhibition for NCCNC[Si](c1ccccc1)(c1ccccc1)c1ccccc1 ?
[reply] 92% (active)

[ask] growth inhibition for C[Si](C)(CCC(=O)O)O[Si](C)(C)CCC(=O)O ?
[reply] 92% (active)

[ask] growth inhibition for Cc1cc(Br)ccc1NC(=O)/C=C/C(=O)O ?
[reply] -5% (inactive)

[ask] growth inhibition for CNC(=O)OCc1c(COC(=O)NC)c2n(c1C)-c1ccccc1CCC2 ?
[reply] 70% (active)

[ask] growth inhibition for Nc1nc(SCc2ccccc2)c2ncn(CCCl)c2n1 ?
[reply] 2% (inactive)

[ask] growth inhibition for COc1ccc(N=Nc2ccc3oc(=O)c(C(=O)Nc4ccccc4C)cc3c2)cc1 ?
[reply] 97% (active)

[ask] growth inhibition for O=C1c2ccccc2C(=O)c2sc(Nc3ccccc3C(F)(F)F)nc21 ?
[reply] 97% (active)

[ask] growth inhibition for CN(C)CCC(=O)c1ccco1 ?
[reply] 93% (active)

[ask] growth inhibition for CC1=C(C)C(=O)C2=C(OCCCO2)C1=O ?
[reply] -19% (inactive)

[ask] growth inhibition for CN(C)S(=O)(=O)c1cc(Cl)ccc1NN ?
[reply] -41% (inactive)

* * *

protocol: NCI Yeast Anticancer Drug Screen. Data for the sgs1 mgt1 strain (AID 161);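 also: 0% = growth of cultures given vehicle only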
run-conditions: S. cerevisiae sgs1 mgt1 strain, at 50.0 µM (retest, dose inferred, filed as 5.0), stronger effect = higher value
Compounds without any hit were thinned out: in the full panel of roughly 79,000, 15% have a hit.
test-readout: growth inhibition (%)
Numbers only here, please. The scale is %.

[ask] growth inhibition for FC(F)(F)c1ccccc1NC(=S)SCc1ccc(Cl)cc1 ?
[reply] 94

[ask] growth inhibition for CCCOC(=O)C#CC(=O)OCCC ?
[reply] 99

[ask] growth inhibition for Cc1ccc(S(=O)(=O)OCC2OC(c3ccccc3)OC3C(CO)OC(c4ccccc4)OC23)cc1 (stereo unspecified) ?
[reply] -6

[ask] growth inhibition for Fc1ccc(CN2COc3c(ccc4cccnc34)C2)cc1 ?
[reply] 34

[ask] growth inhibition for CCOC(=O)Cc1cc(=O)oc2c(CN3CCN(c4ccc(C)cc4)CC3)c(O)ccc12 ?
[reply] 87

[ask] growth inhibition for Cc1ccccc1P(=O)(c1ccccc1C)c1ccccc1C ?
[reply] 42
